- procedure.details: Acute toxicity (LD50) in mice
- reported.conditions: mouse, in vivo, po, observation time 14 days, read-out: LD50 p.o.
measure: LD50 at 336 h

Record excerpt, results attached:
Sure, the documented LD50 at 336 h for CSc1nc(N2CCN(C=O)CC2)nc(N2CC[S+]([O-])CC2)c1[N+](=O)[O-] is > 1000 mg/kg

Entry N#Cc1nc(N2CCNCC2)nc(N2CC[S+]([O-])CC2)c1Cl — recorded LD50 at 336 h = 836 mg/kg

Reported LD50 at 336 h for Cc1nc(N2CCNCC2)nc(N2CC[S+]([O-])CC2)c1[N+](=O)[O-] was 600 mg/kg

// sample CC(=O)CC(=O)N1CCN(c2nc(C)c([N+](=O)[O-])c(N3CC[S+]([O-])CC3)n2)CC1 , its LD50 at 336 h was > 1000 mg/kg

Value of LD50 at 336 h reported for the molecule CCC(C)Oc1nc(N2CCNCC2)nc(N2CCS(=O)(=O)CC2)c1[N+](=O)[O-] (centres unmarked) is 1500 mg/kg

***
LD50 at 336 h for CCOc1nc(N2CCNCC2)nc(N2CC[S+]([O-])CC2)c1[N+](=O)[O-] is 600 mg/kg

Measured LD50 at 336 h, Cc1nc(N2CCNCC2)nc(N2CCSCC2)c1[N+](=O)[O-] : 620 mg/kg

LD50 at 336 h in this record for CC(C)Oc1nc(N2CCNCC2)nc(N2CC[S+]([O-])CC2)c1[N+](=O)[O-] : 500 mg/kg

Values from patent US3975384A
